Quick reference: nuclei count of the listed items.
Experiment: endothelial E-selectin expression blockers – imaging, HUVEC, immunofluorescence, MLSMR starter and 10KST1 sets, primary screen (AID 487);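 further: 100% = median nuclei count of all wells on the same plate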
Test Settings: HUVEC TNFalpha-induced E-selectin immunofluorescence imaging, at 2 µM; measured here: cell number, toxicity
Field: numeric (%). Do not append units.

Known results for compounds:
Cc1nc(-c2cccc(N)c2)cs1	132
C/C(N)=C(/C#N)C(=O)CSc1nnc(Nc2cccc(C)c2)s1	130
Cc1ccc(S(=O)(=O)N2CCC(C(=O)N3CCC[C@H]3C(=O)NCc3ccccc3)CC2)cc1	133
CCCc1cc(=O)[nH]c(/N=C(\N)Nc2ccccc2)n1	138
O=S(=O)(c1ccccc1)c1nc(-c2ccco2)oc1NCCCN1CCOCC1	124

## Input # query: nuclei count of entry "Cc1nn(Cc2ccc(C(=O)NC3CCCCC3)o2)c(C)c1Br"
## Output 108

## Input # query: nuclei count of entry CCOC(=O)c1cc2sc(C)cc2n1C(C)C(=O)OCC (stereo unspecified)
## Output 123

====

Experiment: reduction of polyQ htt aggregates in cells – imaging, exon1htt(103Q)mCFP cells, high-content imaging, primary screen (AID 483);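 further: compound exposure lasted 3 days before fixation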
Test Settings: exon1htt(103Q)mCFP cell line, aggregate imaging, at 2 µM; stronger effect = higher value
# binarize inhibition of aggregation: threshold 10% inclusive, high side True, low side False

The following molecules have reported results that may help.
CC(C)c1ccc(S(=O)(=O)N2CCN(CCC(=O)Nc3ccc(N(C)C)cc3)CC2)cc1	True
CCC(=O)N1Cc2ccccc2-c2ccccc2C1=O	False
O=C(OCCCCN1C(=O)c2ccccc2C1=O)c1n[nH]c2ccccc12	True
COc1cccc(NC(=O)CSc2nnc(-c3cc(-c4ccccn4)nc4ccccc34)o2)c1	False
CC1=C(C(=O)OCc2ccccc2)C(c2ccco2)n2ncnc2N1 (stereo unspecified)	False

--- query ---
## Input # check: inhibition of aggregation of "COc1ccc(S(=O)(=O)N2CCN(CC(=O)Nc3ccc(F)c(F)c3)CC2)cc1" is greater than or equal to 10%
## Output False

====

Experiment: blockers of RIG-like receptor reporter activation – cell-based, Sendai virus stimulus, luciferase, 10K MLSCN set, TLR/RLR signaling modifier project, primary screen (AID 602276);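 further: firefly luciferase from ISG56 promoter only with Renilla not read in this screen; 0% = Sendai virus plus DMSO and 100% = medium plus DMSO without virus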
Test Settings: HEK293 RL24 IRF3 luciferase reporter, at 10 µM, stronger effect = higher value
Endpoint Label: inhibition (%)
Field: numeric (%). Do not append units.

CCN(CC)C(=O)c1ccc(CS(=O)(=O)c2ccc(OC)cc2)o1	-17.1
COCCNC(=O)CC(NS(=O)(=O)c1ccc(NC(C)=O)cc1)C(C)C (stereo unspecified)	8.34
CCOc1cc(C2C(C#N)=C(N)Oc3n[nH]c(CC)c32)ccc1OCCN1CCOCC1 (stereo unspecified)	14.3
Cc1cc(NC(=O)c2ccccc2)ncc1NC(=O)c1ccco1	7.79
CCN(C(=O)CCc1nc(-c2ccccc2F)no1)c1cc(OC)ccc1OC	-11.3

# context switch: different compound, same inhibition
## Input # query: inhibition of entry COc1cc2c(cc1OC)C(C)N(C(=O)Cn1ncc3c1-c1ccccc1OC3)CC2 (stereo unspecified)
## Output 7.96

====

Quick reference: inhibition of the listed items.
Experiment: inhibitors of TNFa-induced NFkB p65 translocation, primary screen, imaging, HUVEC, MLSMR starter and 10KST1 sets (AID 438);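 further: compound added about 3h40 before a 20 min TNFalpha stimulation; signal is the nuclear over cytoplasmic p65 intensity ratio per well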
Test Settings: HUVEC TNFa-induced p65 nuclear translocation; at 2 µM, stronger effect = higher value, 0% TNFa-plus-vehicle, 100% no-TNFa wells
Field: numeric (%). Do not append units.

Known results for molecules:
CCOC(=O)CSc1nc2c(c(-c3ccc(C)o3)c1C#N)CCCC2	-4.4
CCN(CC)C(=O)C1=C(C)Nc2nnnn2C1c1cccnc1 (centres undefined)	9.3
COc1ccc(NC(=O)CN(c2ccc(C(C)C)cc2)S(=O)(=O)c2c(C)noc2C)cc1OC	3.4
O=C(OCCN1C(=O)c2ccccc2C1=O)c1ccc(S(=O)(=O)N2CCCCCC2)cc1	-9.2
CS(=O)(=O)N1CCCC(C(=O)NCCCN2CCC(Cc3ccccc3)CC2)C1 (centres undefined)	-2

## Input # query: inhibition of entry "COc1ccccc1Cn1nnc2c(=O)[nH]c(C3CCN(C(=O)c4ccccc4Cl)CC3)nc21"
## Output 3.2

## Input # query: inhibition of entry "N#Cc1nc(-c2ccco2)oc1NCCc1ccccc1"
## Output -7.5

====

Experiment: blockers of RIG-like receptor reporter activation – cell-based, Sendai virus stimulus, luciferase, 10K MLSCN set, TLR/RLR signaling modifier project, primary screen (AID 602276);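 further: firefly luciferase from ISG56 promoter only with Renilla not read in this screen; 0% = Sendai virus plus DMSO and 100% = medium plus DMSO without virus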
Test Settings: HEK293 RL24 IRF3 luciferase reporter, at 10 µM, stronger effect = higher value
Quick reference: inhibition of the listed items.
Field: numeric (%). Do not append units.

Known results for molecules:
COC(=O)C1=C(C)C(c2cccs2)NC(=O)N1C (stereo not drawn)	15.4
CC1CCCCC1NC(=O)CCCc1nc2ccccc2c(=O)[nH]1 (stereo not drawn)	7.71
COc1ccccc1N1CCN(c2cc(=O)n(Cc3ccc(F)cc3)c(=O)[nH]2)CC1	17.1

# context switch: different molecule, same inhibition
## Input # query: inhibition of entry "CC(=O)NS(=O)(=O)c1ccc(NC(=O)c2ccccc2F)cc1"
## Output 6.18

====

Experiment: TLR3 IRF3 reporter activation blockers – cell-based, poly I:C stimulus, luciferase, 10K MLSCN set, primary screen (AID 602277)
Test Settings: HEK293-TLR3 RL24 IRF3 luciferase reporter, at 10 µM, stronger effect = higher value
Endpoint Label: inhibition (%)
Field: numeric (%). Do not append units.

Known results for molecules:
COc1ccc(C2C(C(=O)N3CCCC3)c3cc(OC)c(OC)cc3C(=O)N2C)cc1 (stereo unspecified)	12.2
Cc1cccc2c1nc(-c1ccccc1)n1cnnc21	-12.4
Cc1cccc(N2CCN(C(=O)C3CCCN(S(=O)(=O)c4cnc[nH]4)C3)CC2C)c1 (stereo unspecified)	17.4
Clc1cccc(N2CCN(Cc3nc(-c4ccccc4)no3)CC2)c1	29.2
CCOC(=O)N1CCN(C(=O)c2n[nH]c(=O)c3ccccc23)CC1	-3.48

# context switch: different molecule, same inhibition
## Input # query: inhibition of entry CC1CCCN(C(=O)c2cc(F)c(F)cc2Cl)C1 (stereo unspecified)
## Output 7.68

====

Target Under Test: Voltage-gated potassium channel subunit beta-2 (Rattus norvegicus)
Experiment: enhancers of rat Kvbeta2 NADPH turnover – biochemical, NADPH fluorescence, primary screen (AID 623);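 further: fluorescence intensity change per second fitted from 20 to 320 s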
Test Settings: Recombinant KvBeta, NADPH fluorescence decrease slope, 10 min; at 10 µM; stronger effect = lower value
Endpoint Label: NADPH fluorescence slope
Could you keep your reply to the number by itself?

Known results for compounds:
COC(=O)CC1C(=O)NCCN1C(=O)NC1CCCCC1 (stereo not drawn)	-1.3e-05
CCOC(=O)/C(C#N)=C(/C)c1ccc(OC)cc1	-4.3e-06
CCCc1cc(=O)[nH]c(Nc2ccc(OC)c(Cl)c2)n1	-8.5e-06
COC(=O)c1[nH]c2ccc(F)cc2c1NS(=O)(=O)c1ccc(OC)cc1OC	-5.6e-05
COc1ccc2cc(CN(CCO)C(=O)c3ccccc3F)c(=O)[nH]c2c1	5.3e-06
Cc1cc(C)n(-c2nc3sc4c(c3c3nnc(SC(C)C)n23)CC(C)(C)OC4)n1	1.9e-05
N[C@@H](Cc1ccccc1)c1nnc2sc(SCc3ccccc3)nn12	-1.6e-06
CC(C)n1nc(C(=O)Nc2nc3ccc(S(C)(=O)=O)cc3s2)c2ccccc2c1=O	-2.5e-05
CCCN1C=CC(=C2C(=O)c3ccccc3C2=O)C=C1	-6.2e-05
COc1ccc(-c2noc(CCN3C(=O)c4ccccc4C3=O)n2)cc1OC	-2.8e-05

## Input # query: NADPH fluorescence slope of entry "CCc1nnc(NC(=O)CSc2nnc3scc(-c4ccc(C)cc4)n23)s1"
## Output -0.000345

## Input # query: NADPH fluorescence slope of entry "Cc1c(C(=O)N2CCCC2)sc(NC(=O)c2cccs2)c1C#N"
## Output -8.5e-06

## Input # query: NADPH fluorescence slope of entry "Cc1ccccc1OCCn1c(=O)oc2ccccc21"
## Output -8e-06

## Input # query: NADPH fluorescence slope of entry "CCOC(=O)Nc1c(O)ccc2oc(C)c(-c3ccccc3)c12"
## Output -0.000121

## Input # query: NADPH fluorescence slope of entry "CC(=O)Nc1cccc(NC(=O)c2oc3ccccc3c2C)c1"
## Output 1.6e-05

====

Experiment: TLR3 IRF3 reporter activation blockers – cell-based, poly I:C stimulus, luciferase, 10K MLSCN set, primary screen (AID 602277)
Test Settings: HEK293-TLR3 RL24 IRF3 luciferase reporter, at 10 µM, stronger effect = higher value
Calls of active or inactive are those of the source.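 How the source made its calls: active means inhibition of the reporter signal at or above 50%; inactive means inhibition below 50%.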
Endpoint Label: inhibition

O=C(Nc1ccc2snnc2c1)N1CCSCC1	3.28% (inactive)
CC(C)Cc1nnc(NS(=O)(=O)c2ccc(Cl)cc2)s1	27.6% (inactive)
COc1ccc(-c2noc(-c3ccccc3C(=O)Nc3cccnc3)n2)cc1OC	0.376% (inactive)

## Input # query: inhibition of entry COc1ccc(N2CCN(CCCNC(=O)CC3Oc4ccc(C)cc4NC3=O)CC2)cc1 (stereo not given)
## Output 22.1% (inactive)

## Input # query: inhibition of entry "COc1ccc(-c2nc(C(N)=O)c3[nH]c(=O)n(-c4cccc(Cl)c4)c3n2)cc1OC"
## Output 6.23% (inactive)
